Assay Target: human constitutive 20S proteasome β5c (Homo sapiens, UniProt P20618+P28074)
Construct: Residue positions are calculated at the start of the processed protein, and the first residue (Thr 1)
Test Details: Kinetic analysis, human constitutive 20S β5 (Ac-WLA-AMC)
Condition Info: equilibrium constant, Figure S3B
Measured Parameter: Ki (nM)
I only need the number, in nM, no unit after it.

Give Ki for the following molecule: CC(C)C[C@H](NC(=O)[C@H](Cc1ccccc1)NC(=O)Cc1ccc(O)cc1)B(O)O
0.1

====

Assay Target: Pf20S β2 (Plasmodium falciparum, UniProt Q8I261+Q8I6T3)
Test Details: Kinetic analysis, Pf20S β2 (Ac-WLR-AMC)
Condition Info: equilibrium constant, Figure S3C; read-out: Ki, P. falciparum β2
Measured Parameter: Ki

Give Ki for the following molecule: CC(C)C[C@H](NC(=O)[C@H](Cc1ccccc1)NC(=O)Cc1ccc(O)cc1)B(O)O
~5 nM
